System: SW-620 colon
PROTOCOL SUMMARY: NCI tumour cell line growth inhibition, 48 h
Listing: TGI of selected molecules

For the molecule shown here, CCCCC(C)/C=C/C(=O)C1=C(O)/C(=C/C(=O)O)OC1=O (stereo not given) , give the reported TGI.
> 100 µM

// query: Cc1ccc(S(=O)(=O)N/N=C(\c2nc3ccc([N+](=O)[O-])cc3[nH]c2=O)C(O)c2ccc([N+](=O)[O-])cc2)cc1 (stereo not given)
> 100 µM

// query: C=CC(COC(=O)C(C)(C)OC(C)=O)c1ccc(OC(=O)C(C)C)c(OC)c1 (stereo not given)
52.8 µM

// query: `Cc1ccc(Nc2cc(Cl)c([N+](=O)[O-])cc2[N+](=O)[O-])cc1`
6.82 µM

// query: `c1ccc2c(c1)nc1n2CSCC1`
> 100 µM

// query: `CCc1cccc(C(C)C)c1NC(=O)CCl`
> 100 µM

***
For the molecule shown here, `CC(=O)c1c(SCCN2CCOCC2)n(-c2ccccc2)c(=S)n(-c2ccccc2)c1=O` , give the reported TGI.
49.9 µM

// query: `Nc1nonc1-c1nc2ccccc2n1Cc1ccc(F)cc1`
> 100 µM

// query: CCOC(=O)C1C=C2O[C@@H]3OC4(CCCCC4)O[C@@H]3C2C2C(=O)CCC(=O)[C@@]12C(=O)OC (stereo not given in full)
> 100 µM

// query: O=C1c2c(O)cc(O)cc2C(C2OC(CO)C(O)C(O)C2O)c2cc(CO)cc(O)c21 (stereo not given)
> 100 µM

// query: `C[C@]12Cc3cnc(-c4ccccc4)nc3C[C@@H]1CC[C@@H]1[C@@H]2CC[C@@]2(C)[C@H]1CC[C@]2(C)O`
> 100 µM

// query: `CCOC(=O)C(Cc1c[nH]c2cc(N(CCO)CCO)ccc12)(NC(C)=O)C(=O)OCC`
> 1000 µM
